Assay: Water solubility
Type: physicochemical
Settings: between pH 1 and 8

[
  {
    "cpd.smiles": "COCCCOc1cc(C[C@@H](C[C@H](N)[C@@H](O)C[C@H](C(=O)NCC(C)(C)C(N)=O)C(C)C)C(C)C)ccc1OC",
    "solubility": "> 350 mg/mL"
  }
]

----------
Assay: Pharmacokinetics in pediatric patients, open label multiple dose study
Settings: human, in vivo, 2 mg/kg, 12-17 yrs old, 2 mg/kg, Day 8; read-out: T½, Mean (converted)

[
  {
    "cpd.smiles": "COCCCOc1cc(C[C@@H](C[C@H](N)[C@@H](O)C[C@H](C(=O)NCC(C)(C)C(N)=O)C(C)C)C(C)C)ccc1OC",
    "half-life / h": 40
  }
]

----------
Experiment: Pharmacokinetics in pediatric patients, open label multiple dose study
Conditions: human, in vivo, 6 mg/kg, 12-17 yrs old, 6 mg/kg, Day 8; read-out: AUCtau, Mean
measured.quantity: AUC (ng·h/mL)

[
  {
    "cpd.smiles": "COCCCOc1cc(C[C@@H](C[C@H](N)[C@@H](O)C[C@H](C(=O)NCC(C)(C)C(N)=O)C(C)C)C(C)C)ccc1OC",
    "measured.quantity": "AUC",
    "result.number": 2090
  }
]

----------
Assay: Pharmacokinetics in pediatric patients, open label multiple dose study
Settings: human, in vivo, 2 mg/kg, 12-17 yrs old, 2 mg/kg, Day 8; read-out: Tmax, Median

[
  {
    "cpd.smiles": "COCCCOc1cc(C[C@@H](C[C@H](N)[C@@H](O)C[C@H](C(=O)NCC(C)(C)C(N)=O)C(C)C)C(C)C)ccc1OC",
    "Tmax [h]": 1
  }
]

----------
Assay: Pharmacokinetics in pediatric patients, open label multiple dose study
Conditions: human, in vivo, 2 mg/kg, 12-17 yrs old, 2 mg/kg, Day 1
measured.quantity: Cmax (ng/mL)

[
  {
    "cpd.smiles": "COCCCOc1cc(C[C@@H](C[C@H](N)[C@@H](O)C[C@H](C(=O)NCC(C)(C)C(N)=O)C(C)C)C(C)C)ccc1OC",
    "measured.quantity": "Cmax",
    "unit.of.measurement": "ng/mL",
    "result.number": 136
  }
]

----------
Test: Pharmacokinetics in pediatric patients, open label multiple dose study
Conditions: human, in vivo, 6 mg/kg, 12-17 yrs old, 6 mg/kg, Day 1
Description: An open label, multiple dose pharmacokinetic and pharmacodynamic study was performed in 24 pediatric patients, ages 6-17 years. […] Blood samples were collected on days one and eight and pharmacokinetics were assessed using a non-compartmental analysis approach.
measured.quantity: Cmax (ng/mL)

[
  {
    "cpd.smiles": "COCCCOc1cc(C[C@@H](C[C@H](N)[C@@H](O)C[C@H](C(=O)NCC(C)(C)C(N)=O)C(C)C)C(C)C)ccc1OC",
    "result.number": 424
  }
]

----------
Assay: Pharmacokinetics in pediatric patients, open label multiple dose study
Details: human, in vivo, 6 mg/kg, 6-11 yrs old, 6 mg/kg, Day 8; read-out: T½, Mean (converted)
measured.quantity: half-life (h)

[
  {
    "cpd.smiles": "COCCCOc1cc(C[C@@H](C[C@H](N)[C@@H](O)C[C@H](C(=O)NCC(C)(C)C(N)=O)C(C)C)C(C)C)ccc1OC",
    "measured.quantity": "half-life",
    "unit.of.measurement": "h",
    "result.number": 36
  }
]

Cited source: patent US20110287100A1
